# Tested on: human Factor XI mRNA
# assay_protocol: Dose-dependent inhibition in HepB3 cells, lipofectin (Example 7)
# Assay type: cell-based
# protocol_conditions: 9.4 nM, approx. 16 h
# Method: Cells were plated at a density of 4,000 cells per well and transfected using lipofectin reagent with 2.3 nM, 4.7 nM, 9.4 nM, 18.75 nM, 37.5 nM, and 75 nM concentrations of antisense oligonucleotide, as specified in Table 14. After a treatment period of approximately 16 hours, RNA was isolated from the cells and human Factor XI mRNA levels were measured by quantitative real-time PCR. […] Factor XI mRNA levels were adjusted according to total RNA content, as measured by RIBOGREEN®. […]
measurement_kind: percent inhibition of human Factor XI mRNA (%)
The answer is to be given in %; state only the numeric part.

substance | observed_result
416892 (antisense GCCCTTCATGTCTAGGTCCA; 3-14-3 chimeric gapmer, wing sugar chemistry not given here, further chemistry not given here) [compound 416892] | 50

Ask: Observed percent inhibition of human Factor XI mRNA on human Factor XI mRNA for 416999 (antisense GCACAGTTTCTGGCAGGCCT; 2-13-5 gapmer, wing sugar chemistry not given here, further chemistry not given here) [compound 416999] , please.
Result: 42

Ask: Observed percent inhibition of human Factor XI mRNA on human Factor XI mRNA for 416925 (antisense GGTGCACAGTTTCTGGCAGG; 3-14-3 chimeric gapmer, wing sugar chemistry not given here, further chemistry not given here) [compound 416925] , please.
Result: 45

Ask: Observed percent inhibition of human Factor XI mRNA on human Factor XI mRNA for 416838 (antisense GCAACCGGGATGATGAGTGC; 5-10-5 gapmer, wing sugar chemistry not given here, further chemistry not given here) [compound 416838] , please.
Result: 43

Ask: Observed percent inhibition of human Factor XI mRNA on human Factor XI mRNA for 416826 (antisense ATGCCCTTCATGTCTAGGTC; 5-10-5 gapmer, wing sugar chemistry not given here, further chemistry not given here) [compound 416826] , please.
Result: 38

Ask: Observed percent inhibition of human Factor XI mRNA on human Factor XI mRNA for 417002 (antisense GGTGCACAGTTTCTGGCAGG; 2-13-5 gapmer, wing sugar chemistry not given here, further chemistry not given here) [compound 417002] , please.
Result: 46

Ask: Observed percent inhibition of human Factor XI mRNA on human Factor XI mRNA for 417003 (antisense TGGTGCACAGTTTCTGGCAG; 2-13-5 gapmer, wing sugar chemistry not given here, further chemistry not given here) [compound 417003] , please.
Result: 40

Ask: Observed percent inhibition of human Factor XI mRNA on human Factor XI mRNA for 416864 (antisense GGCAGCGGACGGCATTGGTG; 5-10-5 gapmer, wing sugar chemistry not given here, further chemistry not given here) [compound 416864] , please.
Result: 42

====

# Test system: human Factor XI mRNA
# assay_protocol: Dose-dependent inhibition in HepG2 cells, lipofectin (Example 4)
# Format: cell-based
# protocol_conditions: 75 nM, 16 hours
In the oligonucleotide strings, read from the 5' end, every base follows the letter of its sugar. An asterisk marks phosphorothioate; unmarked linkages are phosphodiester. Other units and linkages are bracketed, terminal groups are in braces. A string of capitals states the bases alone. e = 2'-O-(2-methoxyethyl) (MOE); [5mC] = 5-methylcytosine; d = 2'-deoxy (DNA)
measurement_kind: percent inhibition of Factor XI mRNA, relative to untreated control cells (%)
The answer is to be given in %; state only the numeric part.

# count of solved cases: 4
substance | observed_result
417000 (antisense eT*eG*d[5mC]*dA*d[5mC]*dA*dG*dT*dT*dT*d[5mC]*dT*dG*dG*d[5mC]*eA*eG*eG*e[5mC]*e[5mC]) [compound 417000] | 70
416892 (antisense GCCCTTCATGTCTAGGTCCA; 3-14-3 chimeric gapmer, wing sugar chemistry not given here, further chemistry not given here) [compound 416892] | 85
416993 (antisense e[5mC]*eT*dT*dT*dG*dA*dG*dA*dT*dT*d[5mC]*dT*dT*dT*dG*eG*eG*e[5mC]*e[5mC]*eA) [compound 416993] | 68
416999 (antisense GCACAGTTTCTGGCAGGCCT; 2-13-5 gapmer, wing sugar chemistry not given here, further chemistry not given here) [compound 416999] | 73

The record that follows has no percent inhibition of Factor XI mRNA, relative to untreated control cells shown yet.
Ask: Find the recorded percent inhibition of Factor XI mRNA, relative to untreated control cells belonging to 413467 (antisense eG*eG*eT*e[5mC]*e[5mC]*dA*d[5mC]*dA*dT*dA*dA*dA*dT*dG*dT*e[5mC]*eT*eT*eT*eG) [compound 413467] and report it.
Result: 69
